tested on: RAW-Dual; experiment: NF-kB SEAP reporter activity, fold change vs agonist alone; cytotoxicity flag (confluency mask): not cytotoxic; higher = enhanced NF-kB activity; conditions: agonist: Pam3CSK4 (TLR2/1) 0.1 ug/mL
In all, about 2,900 compounds were measured (“NF-kB SEAP reporter activity, fold change vs agonist alone”: median about 0.99, highest 2% from about 2.6 on). The sample as a whole holds a higher share of the highest values than the screen did.
Assignment: determine reported NF-kB SEAP reporter activity for the given compounds.
Give a plain numeric answer without units written out.

Exercise: Give NF-kB SEAP reporter activity for CC#CC(=O)N1CCC(n2c(=O)n(-c3ccc(Oc4ccccc4)cc3)c3c(N)ncnc32)C1.Cl (configuration not stated) (library stock concentration (final ~1000-fold dilution): 10 mM)
Solution: 0.517

Exercise: Item CC(C)c1c(-c2ccccc2)[nH]c2c(C#N)cnn2c1=O.Cl (library stock concentration (final ~1000-fold dilution): 10 mM) : provide NF-kB SEAP reporter activity
Solution: 0.52

Exercise: Note down NF-kB SEAP reporter activity recorded for COc1cc(-c2cc(-c3ccc(N4CCNCC4)cc3)cnc2C)cc(OC)c1OC (library stock concentration (final ~1000-fold dilution): 10 mM)
Solution: 1.57

Exercise: Return the recorded NF-kB SEAP reporter activity value; entry: C#Cc1cccc(Nc2ncnc3cc(OCCOC)c(OCCOC)cc23)c1 (library stock concentration (final ~1000-fold dilution): 10 mM)
Solution: 0.935

Exercise: Tell us which NF-kB SEAP reporter activity value is on record for N#Cc1ncccn1 (library stock concentration (final ~1000-fold dilution): 2 mM)
Solution: 1.05

Exercise: Write down NF-kB SEAP reporter activity measured for item Cc1cc(N2CC(C)NC(C)C2)ncc1-c1ccc(-c2nc3c(ccn3C)c(=O)[nH]2)cc1 (configuration not stated) (library stock concentration (final ~1000-fold dilution): 10 mM)
Solution: 1.63

Exercise: Name the recorded NF-kB SEAP reporter activity of the item Cl.N=C(N)NC(=O)c1nc(Cl)c(N)nc1N.O.O (library stock concentration (final ~1000-fold dilution): 10 mM water) in your answer.
Solution: 0.984

Exercise: Specify reported NF-kB SEAP reporter activity for the compound shown: COc1cc2ncnc(Nc3ccc(O)c(Br)c3)c2cc1OC (library stock concentration (final ~1000-fold dilution): 10 mM)
Solution: 1.19

Exercise: State, in one line, measured NF-kB SEAP reporter activity of COc1cc2ncnc(Nc3cccc(Cl)c3F)c2cc1OC(=O)N1CCN(C)CC1C (configuration not stated) (library stock concentration (final ~1000-fold dilution): 10 mM)
Solution: 1.1

Exercise: Using the record for C#Cc1cccc(Nc2ncnc3cc(OC)c(NC(=O)N4CC5CCN(C)C5C4)cc23)c1 (configuration not stated) (library stock concentration (final ~1000-fold dilution): 10 mM) , state its measured NF-kB SEAP reporter activity.
Solution: 0.783

Exercise: Annotate the compound COc1ccc(-c2cc(=O)c3c(O)c(OC)c(O)c(OC)c3o2)cc1 (library stock concentration (final ~1000-fold dilution): 10 mM) with its measured NF-kB SEAP reporter activity.
Solution: 1.05

Exercise: Give the value of NF-kB SEAP reporter activity reported for the following: C#Cc1cccc(Nc2ncnc3cc4c(cc23)OCCOCCOCCO4)c1 (library stock concentration (final ~1000-fold dilution): 10 mM)
Solution: 1.44

Measured values drawn from the supplement of paper PMC10037445 for this set.
